# EXPERIMENT_SUMMARY: High-throughput HPLC-logD
# Format: physicochemical
# MEASUREMENT_CONTEXT: octadecyl-poly(vinyl alcohol) column, methanol / 0.01 M sodium phosphate buffer pH 7.4
RECORDED_METRIC: chromatographic logD

The following molecules have reported results that may help.
MOLECULE: CN1CCC=C(C(=O)OCc2cccc(CO)c2)C1
chromatographic logD: 0.87
--
MOLECULE: CN1CCC=C(C(=O)OCC(O)(c2ccccc2)c2ccccc2)C1
chromatographic logD: 2.69
--
MOLECULE: CN1CCC=C(C(=O)OCc2ccccc2CO)C1
chromatographic logD: 0.79

A = CN1CCC=C(C(=O)OCc2ccc(CO)cc2)C1
B = CN1CCC=C(C(=O)OC(c2ccccc2)c2cccc(CO)c2)C1 (stereo not shown) [Compound 10b]
C = CN1CCC=C(C(=O)OCc2cccc(O)c2)C1 [Compound 18b]
Hi! Can you put these in order of chromatographic logD, lowest number first? List the labels in the requested order.
A, C, B
(A: 1.03, C: 1.57, B: 2.6)
